experiment: Pharmacokinetics in MDA-MB-231 tumor tissues of SCID mice; type: in vivo; conditions: SCID, mouse, in vivo, iv, 10 mg/kg
EXPERIMENTAL ENDPOINT: Cmax (µM)
Express the result in µM but write the number alone.

Measured Cmax of CN[C@@H](C)C(=O)N[C@H]1CN(C(=O)CC(C)C)CC[C@H]2CC[C@@H](C(=O)NC(c3ccccc3)c3ccccc3)N2C1=O : 6

* * *

test: Pharmacokinetics in plasma of SCID mice bearing MDA-MB-231 tumors; conditions: mouse, in vivo, po, 100 mg/kg
EXPERIMENTAL ENDPOINT: Cmax

Measured Cmax of CN[C@@H](C)C(=O)N[C@H]1CN(C(=O)CC(C)C)CC[C@H]2CC[C@@H](C(=O)NC(c3ccccc3)c3ccccc3)N2C1=O [compound 2] : 9.9 µM

* * *

experiment: Pharmacokinetics in plasma of SCID mice bearing MDA-MB-231 tumors; conditions: mouse, in vivo, iv, 10 mg/kg
EXPERIMENTAL ENDPOINT: Cmax (µM)
Express the result in µM but write the number alone.

Measured Cmax of CN[C@@H](C)C(=O)N[C@H]1CN(C(=O)CC(C)C)CC[C@H]2CC[C@@H](C(=O)NC(c3ccccc3)c3ccccc3)N2C1=O [compound 2] : 5

* * *

assay: Pharmacokinetics in dogs; format: in vivo; conditions: beagle, dog, in vivo, po, 10 mg/kg
EXPERIMENTAL ENDPOINT: AUC (µg·h/mL)
Express the result in µg·h/mL but write the number alone.

Measured AUC of CN[C@@H](C)C(=O)N[C@H]1CN(C(=O)CC(C)C)CC[C@H]2CC[C@@H](C(=O)NC(c3ccccc3)c3ccccc3)N2C1=O : 198

* * *

test: Pharmacokinetics in plasma of SCID mice bearing MDA-MB-231 tumors; details: mouse, in vivo, po, 10 mg/kg
EXPERIMENTAL ENDPOINT: Cmax (nM)
Express the result in nM but write the number alone.

Measured Cmax of CN[C@@H](C)C(=O)N[C@H]1CN(C(=O)CC(C)C)CC[C@H]2CC[C@@H](C(=O)NC(c3ccccc3)c3ccccc3)N2C1=O [compound 2] : 1500

* * *

assay: Pharmacokinetics in MDA-MB-231 tumor tissues of SCID mice; assay type: in vivo; conditions: SCID, mouse, in vivo, po, 10 mg/kg
EXPERIMENTAL ENDPOINT: Cmax (nM)
Express the result in nM but write the number alone.

Measured Cmax of CN[C@@H](C)C(=O)N[C@H]1CN(C(=O)CC(C)C)CC[C@H]2CC[C@@H](C(=O)NC(c3ccccc3)c3ccccc3)N2C1=O : 500
